# System: 786-0
# procedureText: NCI tumour cell line growth inhibition, 48 h
Activity calls are given as the source filed them. Cut-off read from the data, not from the text of the source: active = GI50 up to about 1.1 µM and inactive = higher. Where a SMILES comes first, the peptide text is derived from it.
Bench note: report the call from YES (active), NO (inactive)

# input What was the test verdict on Brc1cccc(/C=C/CN2CCN(CCOC(c3ccccc3)c3ccccc3)CC2)c1 ?
# output NO

# input What was the test verdict on COc1ccc(NC(=S)N/N=C(\c2ccccc2)c2ccccn2)cc1 ?
# output YES

# input What was the test verdict on O=C1Nc2ccccc2/C1=c1\[nH]c(=O)/c(=C\c2ccc(OCc3ccccc3)cn2)[nH]c1=O ?
# output NO

# input What was the test verdict on O=C1/C(=C/c2cccc([N+](=O)[O-])c2)N=C(c2ccccc2)N1c1ccc2c(c1)Sc1cc(N3C(=O)/C(=C/c4cccc([N+](=O)[O-])c4)N=C3c3ccccc3)ccc1N2 ?
# output NO

# input What was the test verdict on O=C1NC(NNc2ccccc2)=N/C1=C\c1ccco1 ?
# output NO

# input What was the test verdict on c1ccc2c(c1)C1CCCCCC21N1CCOCC1 (configuration not stated) ?
# output NO

# input What was the test verdict on COc1ccc2nc(NC(=O)C(=O)NNC(=O)c3ccncc3)sc2c1 ?
# output NO

# input What was the test verdict on C/C(=N\O)c1sc(-n2nc(-c3ccccc3)cc2-c2ccccc2)nc1C ?
# output NO

# input What was the test verdict on O=C1c2cnccc2Cc2cccc3c2N1c1ccccc1S3 ?
# output NO

# input What was the test verdict on O=CN1CCN(C(=O)c2cc(Cl)cc(Cl)c2)C1=S ?
# output NO

# input What was the test verdict on CCOC(=O)c1sc2nc(SC)nc3c2c1N=CN3c1ccccc1Cl ?
# output NO

# input What was the test verdict on O=C(NCP(=O)(c1ccccc1)c1ccccc1)OCc1ccccc1 ?
# output NO

# input What was the test verdict on CC(=O)NC(CS)C(=O)NC(CO)C(=O)NC(CO)C(=O)NC(Cc1c[nH]c2ccccc12)C(=O)N1CCCC1C(=O)NC(CO)C(=O)NC(Cc1c[nH]c2ccccc12)C(=O)NC(Cc1c[nH]cn1)C(=O)NC(CO)C(=O)NC(Cc1c[nH]c2ccccc12)C(=O)NCC(=O)NCC(=O)NC(CC(=O)O)C(=O)NC(CCC(N)=O)C(=O)NC(CCCCN)C(=O)NC(Cc1ccccc1)C(=O)NC(CCCNC(=N)N)C(=O)NC(CCCCN)C(N)=O (configuration not stated) (Ac-CSSWPSWHSWGGDQKFRK-NH2; configuration not given here) ?
# output NO

# input What was the test verdict on S=C(N/N=C(/c1ccccc1)c1ccccn1)Nc1ccc(Cl)cc1 ?
# output YES

# input What was the test verdict on CC(C)(C)c1nc2c(o1)/C(=N\c1ccccc1)c1ccccc1C2=O ?
# output NO

# input What was the test verdict on CCOCc1cc(=O)c2cc3c(cc2o1)OC(C)(C)CC3 ?
# output NO

# input What was the test verdict on Cc1cc(C)nc(NC(P(=O)(O)O)P(=O)(O)O)n1 ?
# output NO

----------
# System: T47D
# procedureText: NCI tumour cell line growth inhibition, 48 h
The source made the active and inactive calls. Rule as the data show it: active = GI50 up to about 1.1 µM and inactive = higher.
Bench note: report the call from Yes for active, No for inactive

# input What was the test verdict on Oc1cc(-c2ccc(Cl)cc2)nc2ncccc12 ?
# output No

# input What was the test verdict on CCOC(=O)/C=C1\Nc2ccccc2C12CCc1c([nH]c3ccccc13)C2C(=O)OCC (centres undefined) ?
# output No

# input What was the test verdict on O=C(NCCc1ccccc1)c1cc(/C=C/c2cc(O)ccc2O)ccc1O ?
# output No

# input What was the test verdict on Cc1c(C)c(S(=O)(=O)N(CCCCCON)OCCCN)c(C)c2c1OC(C)(C)CC2 ?
# output No

# input What was the test verdict on COC(=O)CN(CC1O[C@@H]2OC(C)(C)O[C@@H]2C1N=[N+]=[N-])C(=O)OCc1ccccc1 (some centres undefined) ?
# output No

# input What was the test verdict on CCSc1s/c(=N/c2ccc(/N=c3\sc(C)c(SC)s3)cc2)sc1-c1ccc(C)cc1 ?
# output No

# input What was the test verdict on Cc1cn(CCCCOC(=O)NC(CCCNC(=N)N)C(=O)O)c(=O)[nH]c1=O (centres undefined) ?
# output No

# input What was the test verdict on O=C1C2C3C=CC(C2C(=O)N1CN1CCOCC1)C1C2C(=O)N(CN4CCOCC4)C(=O)C2C31 (centres undefined) ?
# output No

# input What was the test verdict on O=C1C(O)=C(Cl)C(=O)c2c(O)ccc(O)c21 ?
# output No

# input What was the test verdict on CC1(C)COC(c2cccc(C(O)c3ccc(Cl)cc3)c2)=N1 (centres undefined) ?
# output No

# input What was the test verdict on C[C@]12CC[C@H](O)CC1=CC[C@@H]1C2CC[C@]2(C)c3n[nH]nc3CC12 (some centres undefined) ?
# output No

# input What was the test verdict on Cc1cc(O)c2c(c1)C(C1c3cccc(O)c3C(=O)c3c(O)cc(C)cc31)c1cccc(O)c1C2=O (centres undefined) ?
# output Yes

# input What was the test verdict on ON=C1CCCCC(=NO)CCCC1 ?
# output No

# input What was the test verdict on CC(=O)O[C@@]12[C@@H]3O[C@@]4(O)C[C@]5(C)[C@H]6C[C@@](C(C)C)(O[C@H]5c5ccoc5)O[C@H]1[C@]6(C4)O[C@]2(O)C(C)=CC3(C)C ?
# output No

# input What was the test verdict on CN(C)CCn1c(=O)c2ccc(NCCCN(C)CCCNc3ccc4c(=O)n(CCN(C)C)c(=O)n5c6ccc(O)cc6c(=O)c3c45)c3c(=O)c4cc(O)ccc4n(c1=O)c23 ?
# output Yes

# input What was the test verdict on COc1ccc(Oc2cnn(C(Br)(Br)C(C)=O)c(=O)c2Br)cc1 ?
# output No

# input What was the test verdict on Cn1c(=O)c2nc(CSCc3ccccc3)[nH]c2n(C)c1=O ?
# output No

# input What was the test verdict on Cc1cc(C(=O)CBr)c(CN2C(=O)c3ccccc3C2=O)c(=O)n1C ?
# output No

# input What was the test verdict on COc1cc(/C=C/c2ccc(OC)c(OC)c2)cc(OC)c1 [(E)-3,4,3',5'-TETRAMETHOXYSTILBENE] ?
# output No
